Target: TEAD2 (Homo sapiens (Human))
Sequence (Q15562 whole entry): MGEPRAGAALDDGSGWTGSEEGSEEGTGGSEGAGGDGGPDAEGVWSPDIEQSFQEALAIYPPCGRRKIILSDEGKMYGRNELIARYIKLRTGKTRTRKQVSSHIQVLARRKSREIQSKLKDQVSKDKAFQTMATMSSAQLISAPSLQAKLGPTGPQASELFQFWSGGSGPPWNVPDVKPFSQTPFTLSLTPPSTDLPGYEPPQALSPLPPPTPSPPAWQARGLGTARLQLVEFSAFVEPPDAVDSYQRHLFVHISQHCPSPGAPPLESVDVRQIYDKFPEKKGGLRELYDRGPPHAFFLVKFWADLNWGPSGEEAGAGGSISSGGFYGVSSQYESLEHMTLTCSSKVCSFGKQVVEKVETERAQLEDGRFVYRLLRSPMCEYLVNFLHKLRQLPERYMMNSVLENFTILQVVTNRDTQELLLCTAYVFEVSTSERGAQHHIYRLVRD
Assay: In vitro palmitoylation (TEAD2 autopalmitoylation, streptavidin blot)
Type: biochemical
Conditions: compound at 10 μM; Table 2
Binary classification by inhibition at 10 µM, with 70% as an inclusive lower bound for condition met; all other cases are condition not met.

Mol | Class
O=C(O)c1ccccc1C(=O)Nc1ccc(Nc2ccc(C34CC5CC(CC(C5)C3)C4)cc2Cl)cc1 | condition met
COC(=O)c1ccccc1Nc1cccc(Nc2ccc(C34CC5CC(CC(C5)C3)C4)cc2)c1 | condition not met
CNC(=O)c1cc(OC)ccc1Nc1ccc(N(C)c2ccc(C(F)(F)F)cc2)cc1 | condition not met
O=C(O)c1cccc(Nc2cccc(Nc3ccc(C45CC6CC(CC(C6)C4)C5)cc3Cl)c2)n1 | condition met
O=C(O)c1cccn1Cc1ccc(Nc2ccc(C34CC5CC(CC(C5)C3)C4)cc2Cl)cc1 | condition met

Enquiry: Reported inhibition at 10 µM at or above 70%? CN(c1ccc(N2CC(Oc3ccc(C45CC6CC(CC(C6)C4)C5)cc3)C2)cc1)c1ccccc1C(=O)O
Return: condition not met

Enquiry: Dear colleague, could you confirm whether CC12CC3CC(C)(C1)CC(c1ccc(Oc4ccc(Nc5ccccc5C(=O)O)cc4)c(Cl)c1)(C3)C2 has inhibition at 10 µM at or above 70%?
Return: condition met
